Overview of reported pKi across a group of compounds:
- test description: Inhibition of Plasmodium falciparum recombinant falcipain-2 using Cbz-Leu-Arg-AMC as substrate by standard fluorescence assay
Please express pKi as -log10 of the molar concentration.

Example results:
- CCOC(=O)/C=C/COC(=O)[C@H](CC(N)=O)NC(=O)[C@H](CC(C)C)NC(=O)OC(C)(C)C: 4.60
- O=C(O)/C=C\C(=O)N[C@@H](Cc1ccccc1)C(=O)OCc1ccccc1: 5.12
- CCOC(=O)/C=C\C(=O)N[C@@H](Cc1ccccc1)C(=O)N[C@@H](C)C(=O)OCc1ccccc1: 4.60
- CCOC(=O)/C=C\C(=O)OC[C@H](Cc1ccccc1)NC(=O)OC(C)(C)C: 4.27

Problem: Please indicate pKi recorded for CCOC(=O)/C=C/C(=O)N[C@@H](CCC(=O)NC(c1ccccc1)(c1ccccc1)c1ccccc1)C(=O)OC
Solution: 5.48

Origin of values: ChEMBL document CHEMBL1156268
